Biological target: TSPO (Rattus norvegicus)
Assay: Radioligand displacement of [3H]PK11195 in C6 glioma cell lysate
Type: binding
MEASUREMENT KIND: pIC50
# pIC50 is unitless: minus log10 of the molar concentration; print number only

# SMILES TEXT, pIC50
measured = [
    ("CCc1cc(C)n2nc(-c3ccc(OCCF)cc3)c(CC(=O)N(CC)CC)c2n1", 10.71),
]

Now for a further compound.
Task: Tell me the measured pIC50 of CCc1cc(C)nc2c(CC(=O)N(CC)CC)c(-c3ccc(OCCF)cc3)nn12 , please.
Result: 10.84
